Just for reference, ChEMBL document CHEMBL4311982 is where these values come from.

Assay Explanation: AUC (0 to infinity) in Wistar rat at 22 umol/kg, po measured upto 24 hrs by LC-MS/MS analysis
Type: ADME, organism-based
Parameters: dose 22 umol/kg, time infinity, route oral
Condition Notes: in vivo
Listed next: entries and their corresponding AUC(0-inf).
Report the value in ng·h/mL with no unit label.

Sample records with AUC(0-inf):
CCOC(=O)[C@]1(C)CCC[C@@]2(C)[C@@H]3CC[C@@]4(C)C[C@]3(CC[C@@H]21)C/C4=N\OCc1ccsc1 | 5530
CCOC(=O)[C@]1(C)CCC[C@@]2(C)[C@@H]3CC[C@@]4(C)C[C@]3(CC[C@@H]21)C/C4=N\OCC1(C)COC1 | 4810

Now, please, on to the next compound.
// field: AUC(0-inf); key: `O=C(NC[C@H]1CN(c2ccc(N3CCOCC3=O)cc2)C(=O)O1)c1ccc(Cl)s1` ; value = 6980

----------
Each entry below lists one item and its recorded pKi value.
Target Or Test System: Coagulation factor X (Homo sapiens, UniProt P00742)
Sequence (P00742 41-179 limits assumed): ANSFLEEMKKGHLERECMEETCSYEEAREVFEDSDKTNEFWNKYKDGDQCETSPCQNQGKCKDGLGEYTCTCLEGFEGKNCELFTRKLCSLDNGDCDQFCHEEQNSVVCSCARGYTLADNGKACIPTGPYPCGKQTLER
Sequence (P00742 235-488 limits assumed): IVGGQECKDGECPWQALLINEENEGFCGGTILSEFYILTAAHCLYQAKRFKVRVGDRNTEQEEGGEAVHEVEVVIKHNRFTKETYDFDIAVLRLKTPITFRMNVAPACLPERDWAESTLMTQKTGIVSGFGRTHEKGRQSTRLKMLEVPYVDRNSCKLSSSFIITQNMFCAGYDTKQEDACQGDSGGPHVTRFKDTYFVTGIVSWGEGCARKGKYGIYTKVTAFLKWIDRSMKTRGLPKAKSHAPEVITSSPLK
Assay Explanation: Inhibition of human activated Factor X using S-2765 as substrate incubated for 15 mins followed by substrate addition and measured after 1 hr by chromogenic assay
Please report pKi as the negative decimal logarithm of the molar concentration, giving only the number.

Solved entries:
CCOC(=O)[C@]1(C)CCC[C@@]2(C)[C@@H]3CC[C@@]4(C)C[C@]3(CC[C@@H]21)C/C4=N\OC/C=C/c1ccc(C#N)cc1 | 4.87
CCOC(=O)[C@]1(C)CCC[C@@]2(C)[C@@H]3CC[C@@]4(C)C[C@]3(CC[C@@H]21)C/C4=N\OCc1ccc(C(F)(F)F)cc1 | 5.57

// pKi lookup, molecule = `CCOC(=O)[C@]1(C)CCC[C@@]2(C)[C@@H]3CC[C@@]4(C)C[C@]3(CC[C@@H]21)C/C4=N\OC/C=C/c1c[nH]c(C(=O)OC)c1` , result: 5.72

----------
Assay Explanation: Clearance in Wistar rat at 22 umol/kg, po measured upto 24 hrs by LC-MS/MS analysis
Assay type: ADME, organism-based
Condition Notes: in vivo
Test Readout: CL/F (mL/min)
Report the figure in mL/min without appending any unit label.

Here are 2 compounds together with their reported answers.
CCOC(=O)[C@]1(C)CCC[C@@]2(C)[C@@H]3CC[C@@]4(C)C[C@]3(CC[C@@H]21)C/C4=N\OCc1ccsc1 | 30
O=C(NC[C@H]1CN(c2ccc(N3CCOCC3=O)cc2)C(=O)O1)c1ccc(Cl)s1 | 25

Next item in the queue.
Per the record, `CCOC(=O)[C@]1(C)CCC[C@@]2(C)[C@@H]3CC[C@@]4(C)C[C@]3(CC[C@@H]21)C/C4=N\OCC1(C)COC1` has CL/F of 35

----------
Target Or Test System: Coagulation factor XI (Homo sapiens)
Sequence (P03951 19-387 limits assumed): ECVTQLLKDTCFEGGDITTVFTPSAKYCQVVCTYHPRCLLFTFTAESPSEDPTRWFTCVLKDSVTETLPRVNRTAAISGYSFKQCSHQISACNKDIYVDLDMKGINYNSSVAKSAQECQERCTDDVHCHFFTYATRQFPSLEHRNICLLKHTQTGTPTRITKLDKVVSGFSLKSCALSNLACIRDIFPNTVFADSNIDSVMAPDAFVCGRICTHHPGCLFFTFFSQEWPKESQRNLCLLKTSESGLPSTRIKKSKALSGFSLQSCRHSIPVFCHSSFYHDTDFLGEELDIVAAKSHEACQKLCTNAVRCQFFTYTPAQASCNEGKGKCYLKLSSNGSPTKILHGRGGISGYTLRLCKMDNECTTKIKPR
Sequence (P03951 388-625 limits assumed): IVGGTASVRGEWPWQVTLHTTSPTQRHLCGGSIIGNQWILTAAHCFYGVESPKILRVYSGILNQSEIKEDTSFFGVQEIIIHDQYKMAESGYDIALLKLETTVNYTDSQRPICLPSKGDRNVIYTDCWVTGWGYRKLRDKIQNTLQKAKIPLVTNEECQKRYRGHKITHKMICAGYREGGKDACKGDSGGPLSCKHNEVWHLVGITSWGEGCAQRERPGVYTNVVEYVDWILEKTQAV
Assay Explanation: Inhibition of human activated Factor XI using S-2366 as substrate incubated for 15 mins followed by substrate addition and measured after 1 hr by chromogenic assay
Test Readout: pKi
Just so you know, pKi here is -log10 of the concentration in molar units; reply with that number alone.

CCOC(=O)[C@]1(C)CCC[C@@]2(C)[C@@H]3CC[C@@]4(C)C[C@]3(CC[C@@H]21)C/C4=N\OCC1(C)COC1 | 5.71

Now consider a different compound.
`CCOC(=O)[C@]1(C)CCC[C@@]2(C)[C@@H]3CC[C@@]4(C)C[C@]3(CC[C@@H]21)C/C4=N\OCc1ccsc1` on Coagulation factor XI (Homo sapiens) gives pKi = 5.77
